Below, each entry is listed with its recorded Ki.
Target: human ALK5 (Homo sapiens, UniProt P36897)
Construct: human ALK5 (recombinant TGF β1 N-term GST-tagged, 80-end); GST (N)
Sequence (P36897 80-503 limits assumed): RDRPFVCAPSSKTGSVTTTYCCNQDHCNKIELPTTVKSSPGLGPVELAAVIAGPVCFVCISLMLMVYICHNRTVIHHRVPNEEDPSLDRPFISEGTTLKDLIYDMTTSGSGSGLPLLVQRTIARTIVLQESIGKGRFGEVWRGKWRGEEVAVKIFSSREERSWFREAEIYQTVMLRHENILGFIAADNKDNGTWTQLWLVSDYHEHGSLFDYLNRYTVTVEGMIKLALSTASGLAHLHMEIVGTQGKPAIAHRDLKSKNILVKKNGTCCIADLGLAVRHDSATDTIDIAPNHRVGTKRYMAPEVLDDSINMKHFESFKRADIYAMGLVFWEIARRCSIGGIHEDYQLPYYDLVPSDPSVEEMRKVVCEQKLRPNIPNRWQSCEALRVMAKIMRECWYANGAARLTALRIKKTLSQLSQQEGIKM
Assay: ADP-GLO Kinases assay of ALK5 enzymatic activity
Settings: purified recombinant human ALK5, TGFβ1 peptide substrate, pIC50 converted to pKi by Cheng-Prusoff, high ATP protocol (15 μM) for very potent compounds, 25° C.
Experimental: The enzymatic activity of compounds of the present invention was monitored measuring the formation of ADP using the ADP-GLO Kinases assay. […] After an incubation of 120 min, the reaction was stopped, and ADP production detected with ADP-Glo kit according to manufacturer's indications. […] After an incubation of 60 min, the kinase reaction was stopped, and ADP production detected with ADP-Glo kit according to manufacturer's indications. […]

compound: CN1C[C@@H]2C[C@H]1CN2[C@H]1C[C@@H](C(=O)Nc2cc(Nc3cc(-c4cc(Cl)ccc4F)nnc3SCCO)ccn2)C1
endpoint.value: ≤ 100 pM

compound: CN1CCN([C@H]2C[C@H](C(=O)Nc3cc(Nc4cc(-c5cc(Cl)ccc5F)nnc4N(C)C)ccn3)C2)CC1 (single isomer, unassigned)
endpoint.value: ≤ 100 pM

compound: CN1CCN(CCC(=O)Nc2cc(Nc3cc(-c4cc(Cl)ccc4F)nnc3N3CCC3C(=O)O)ccn2)CC1 (stereo not drawn)
endpoint.value: 398 to 3160 pM

compound: CSCCCOc1nnc(-c2cc(Cl)ccc2F)cc1Nc1ccnc(N)c1
endpoint.value: 126 to 316 pM

compound: CN1C[C@@H]2C[C@H]1CN2CC(=O)Nc1cc(Nc2cc(-c3cc(Cl)ccc3F)nnc2OC[C@H]2C[C@@H](O)C2)ccn1
endpoint.value: ≤ 100 pM

Query compound follows.
What value of measured Ki is listed for CN1CCN([C@H]2C[C@@H](C(=O)Nc3cc(Nc4cc(-c5cc(Cl)ccc5F)nnc4N(C)CC4(C)CCOC4=O)ccn3)C2)CC1 (single isomer, unassigned) [Example 135] ?
≤ 100 pM

These measurements were taken from patent US20250011299A1.
